# assay comment: BSK_BT_Bcell_Proliferation: Viability Assessment in the BioMAP Diversity Plus: BT Assay for B cell Proliferation (AID 2284227)
# study conditions: primary human B cells with PBMC
The source made the active and inactive calls. The calls were made as follows: active = hit-call score of the fitted dose curve at least 0.9, where 1 is the maximum; inactive = score below 0.9.
Your reply should match one of these outcome classes. active, inactive

Recorded results for 3 compounds are shown here.
Entry CCCCCCCCCC(=O)OCC : call = ?
inactive

Entry CCC(=O)OCC=Cc1ccccc1 : call = ?
inactive

Entry C=CC(=O)OCC(CO)(COC(=O)C=C)COC(=O)C=C : call = ?
active

More entries:
Entry CC1=CC(C)C(C=O)C(C)C1 (stereo not drawn) (tested in a mixture with another compound) : call = ?
inactive

* * *

# assay comment: BSK_LPS_SRB: Viability Assessment in the BioMAP Diversity Plus: LPS Assay (AID 2283079);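 also: total protein by sulforhodamine B absorbance as a cytotoxicity measure; measured one day after compound addition; fitted in both directions against DMSO so loss or gain of signal counts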
# study conditions: primary human HUVEC with PBMC
The source made the active and inactive calls. Rule for the calls: active = hit-call score of the fitted dose curve at least 0.9, where 1 is the maximum; inactive = score below 0.9.
Your reply should match one of these outcome classes. Yes for active, No for inactive

Recorded results for 5 compounds are shown here.
Entry CC(C)Cc1ccc(C(C)C(=O)O)cc1 (stereo unspecified) : call = ?
No

Entry CCCCCCCC1CCCC1=O (stereo unspecified) : call = ?
No

Entry OCC(F)(OC(F)(F)C(F)(OC(F)(F)C(F)(F)C(F)(F)F)C(F)(F)F)C(F)(F)F (stereo unspecified) : call = ?
No

Entry C=CC(=O)OCC(CO)(COC(=O)C=C)COC(=O)C=C : call = ?
Yes

Entry O=C1OC2(c3ccc(O)cc3Oc3cc(O)ccc32)c2ccccc21 : call = ?
No

# ---- query compound ----
Entry CC(=O)OCC=C(C)CCC=C(C)CCC=C(C)C : call = ?
No

* * *

# Read-out: E-selectin (Homo sapiens)
# assay comment: BSK_3C_Eselectin: BioMAP Diversity Plus: 3C Assay for Eselectin Biomarker Activity (AID 2283015);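 as to outcome: cell surface E-selectin protein quantified by ELISA 24 h after dosing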
# study conditions: primary human endothelial cells (HUVEC); actives raise or lower the signal
Activity calls are given as the source filed them. Rule for the calls: active = hit-call score of the fitted dose curve at least 0.9, where 1 is the maximum; inactive = score below 0.9.
Your reply should match one of these outcome classes. t (active), f (inactive)

Entry O=S(=O)(O)C(F)(F)C(F)(F)OC(F)(F)C(F)(F)F : call = ?
f

Entry CC(C)(C)c1cccc(O)c1 : call = ?
f

Entry c1ccc(OCCOc2ccccc2)cc1 : call = ?
f

Entry C#C[C@]1(O)CC[C@H]2[C@@H]3CCc4cc(O)ccc4[C@H]3CC[C@@]21C : call = ?
t

Entry C[C@]12CC[C@@H]3c4ccc(O)cc4CC[C@H]3[C@@H]1CC[C@@H]2O : call = ?
t

Entry c1ccc(Sc2ccccc2)cc1 : call = ?
t

Entry O=C(O)C(F)(F)C(F)(F)C(F)(F)C(F)(F)C(F)(F)C(F)(F)C(F)(F)C(F)F : call = ?
f

Entry C=C(F)C(=O)OC(C(F)(F)F)C(F)(F)F : call = ?
f

Entry CC(=O)c1ccc(C)cc1 : call = ?
f

Entry CC(=O)CCC=C(C)CCC=C(C)C : call = ?
f

# ---- query compound ----
Entry CCCCCCCC1CCCC1=O (stereo not drawn) : call = ?
t

* * *

# assay comment: ATG_EGR_CIS: Attagene CIS-FACTORIAL HepG2 Assay for human Early Growth Response 1 (EGR1) (AID 2282938)
# study conditions: HepG2 Attagene CIS-FACTORIAL EGR reporter mRNA; actives raise or lower the signal
Activity calls are given as the source filed them. The calls were made as follows: active = hit-call score of the fitted dose curve at least 0.9, where 1 is the maximum; inactive = score below 0.9.
Your reply should match one of these outcome classes. active, inactive

Recorded results for 3 compounds are shown here.
Entry CCCCC1CCCCC(=O)O1 (configuration not stated) : call = ?
inactive

Entry CCc1cccc(O)c1 : call = ?
inactive

Entry CCCCN(CCO)CCO : call = ?
inactive

More entries:
Entry CN(C)c1ccc(C=O)cc1 : call = ?
inactive

Entry C1=COCCC1 : call = ?
inactive

Entry NC(=O)c1c(Cl)cccc1Cl : call = ?
inactive

Entry CC/C=C\CCOC(C)OCC (configuration not stated) : call = ?
inactive

Entry CC(=O)CCC(=O)O : call = ?
inactive
